- Test system: UniProt P11362
- Protocol text: Inhibition of recombinant human His-tagged FGFR1 cytoplasmic domain (308 to 731 residues) expressed in baculovirus expression system at 100 uM using Tyr 04 as substrate measured after 1 hr by Z'-LYTE assay relative to control
Quantity measured: inhibition at 100 µM (%)

{"columns": ["Molecule", "Quantity measured", "Observed"],
 "data": [
  ["COc1ccc(-c2ccc3cn[nH]c3c2)cc1", "inhibition at 100 µM", 11],
  ["c1cc(-c2ccc3cn[nH]c3c2)cs1", "inhibition at 100 µM", 20],
  ["Clc1cccc(-c2ccc3cn[nH]c3c2)c1", "inhibition at 100 µM", 32],
  ["Cc1csc(-c2ccc3cn[nH]c3c2)c1", "inhibition at 100 µM", 19],
  ["Fc1cccc(-c2ccc3cn[nH]c3c2)c1", "inhibition at 100 µM", 19]
]}

1 = FC(F)(F)c1cc(-c2ccc3cn[nH]c3c2)cc(C(F)(F)F)c1
2 = c1coc(-c2ccc3cn[nH]c3c2)c1
3 = Clc1ccc(-c2ccc3cn[nH]c3c2)cc1
Sort the molecules on inhibition at 100 µM; start with the lowest figure. I would appreciate it if you listed the labels in the requested order.
1, 3, 2
(1: -5%, 3: 12%, 2: 29%)

* * *

- Test system: Fibroblast growth factor receptor 1 (Homo sapiens, UniProt P11362)
- Sequence (P11362 whole entry, the tested form may be a part): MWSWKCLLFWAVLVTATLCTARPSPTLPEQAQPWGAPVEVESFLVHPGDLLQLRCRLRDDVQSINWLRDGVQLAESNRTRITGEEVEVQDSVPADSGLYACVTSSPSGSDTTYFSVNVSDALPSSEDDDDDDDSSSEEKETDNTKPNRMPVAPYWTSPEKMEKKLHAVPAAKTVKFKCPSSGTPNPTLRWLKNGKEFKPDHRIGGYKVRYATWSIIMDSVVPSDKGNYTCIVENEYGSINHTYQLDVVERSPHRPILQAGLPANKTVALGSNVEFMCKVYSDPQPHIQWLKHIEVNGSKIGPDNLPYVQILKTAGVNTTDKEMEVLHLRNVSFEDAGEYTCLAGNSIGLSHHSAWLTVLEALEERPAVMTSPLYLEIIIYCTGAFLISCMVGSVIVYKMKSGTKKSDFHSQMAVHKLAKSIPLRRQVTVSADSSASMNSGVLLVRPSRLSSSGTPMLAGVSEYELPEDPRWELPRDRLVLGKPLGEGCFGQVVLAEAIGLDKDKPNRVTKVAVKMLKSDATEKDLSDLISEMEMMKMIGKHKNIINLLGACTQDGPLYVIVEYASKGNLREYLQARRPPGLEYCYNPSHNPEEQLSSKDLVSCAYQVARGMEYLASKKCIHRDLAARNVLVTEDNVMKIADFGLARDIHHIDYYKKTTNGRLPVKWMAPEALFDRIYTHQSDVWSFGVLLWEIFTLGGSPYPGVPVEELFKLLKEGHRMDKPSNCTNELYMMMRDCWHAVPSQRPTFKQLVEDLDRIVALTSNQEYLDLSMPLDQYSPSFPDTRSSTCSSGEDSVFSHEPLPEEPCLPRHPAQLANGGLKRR
- Protocol text: Inhibition of recombinant human His-tagged FGFR1 cytoplasmic domain (308 to 731 residues) expressed in baculovirus expression system using Tyr 04 as substrate measured after 1 hr by Z'-LYTE assay
pIC50: −log10 of the molar value.
Quantity measured: pIC50

{"columns": ["Molecule", "pIC50"],
 "data": [
  ["c1cncc(-c2ccc3cn[nH]c3c2)c1", 4.05],
  ["Oc1ccc(-c2ccc3cn[nH]c3c2)c(F)c1", 5.00],
  ["c1ccc(-c2ccc3cn[nH]c3c2)cc1", 4.11]
]}

1 = Cc1cc(O)ccc1-c1ccc2cn[nH]c2c1
2 = Clc1cncc(-c2ccc3cn[nH]c3c2)c1
3 = CCOc1cc(F)cc(-c2ccc3cn[nH]c3c2)c1
Sort the compounds on pIC50; start with the lowest figure. I would appreciate it if you listed the labels in the requested order.
3, 2, 1

I = Cc1cc(-c2ccc3cn[nH]c3c2)ccc1O
II = Oc1ccc(-c2ccc3cn[nH]c3c2)cc1F
Compare I and II and name the one whose reported pIC50 is smaller. Please respond with the label that marks your chosen entry.
II
(II: 4.85, I: 5.06)

* * *

- Test system: Fibroblast growth factor receptor 1 (Homo sapiens, UniProt P11362)
- Protocol text: Inhibition of recombinant human His-tagged FGFR1 cytoplasmic domain (308 to 731 residues) expressed in baculovirus expression system at 500 uM using Tyr 04 as substrate measured after 1 hr by Z'-LYTE assay relative to control
Quantity measured: inhibition at 500 µM (%)

Solved cases below.
{"columns": ["Molecule", "Observed"],
 "data": [
  ["c1cncc(-c2ccc3cn[nH]c3c2)c1", 66],
  ["c1ccc(-c2ccc3cn[nH]c3c2)cc1", 53],
  ["c1cncc(-c2ccc3cc[nH]c3c2)c1", 16]
]}

I = Clc1cncc(-c2ccc3cc[nH]c3c2)c1
II = Clc1cncc(-c2ccc3cn[nH]c3c2)c1
III = c1ccc(-c2ccc3cc[nH]c3c2)cc1
Ordering criterion: inhibition at 500 µM; begin with the maximum. I would appreciate it if you listed the labels in the requested order.
II, I, III
